- System: HepG2 cells
- Procedure details: MTT cytotoxicity assay, HepG2
- Assay type: cell-based
- Recorded conditions: Homo sapiens, HepG2, 48 h, read-out: IC50 HepG2
pIC50: −log10 of the molar value.
Endpoint: pIC50

• Nc1nn(-c2ccccn2)c(N)c1N=Nc1ccc(S(=O)(=O)O)cc1 = 4.27
• Nc1nn(-c2ccccn2)c(N)c1N=Nc1ccc(N=Nc2ccccc2)cc1 = 4.17
• COc1cccc2c1C(=O)c1c(O)c3c(c(O)c1C2=O)C[C@@](O)(C(=O)CO)C[C@@H]3O[C@H]1C[C@H](N)[C@H](O)[C@H](C)O1 [DOX, doxorubicin, reference compound] = 5.35
• Nc1nn(-c2ccccn2)c(N)c1N=Nc1ccccc1Cl = 4.13
• Nc1nn(-c2ccccn2)c(N)c1N=Nc1ccc(C(=O)O)c(O)c1 = 4.88
• NC(N)=NS(=O)(=O)c1ccc(N=Nc2c(N)nn(-c3ccccn3)c2N)cc1 = 4.64
• COc1ccc(N=Nc2c(N)nn(-c3ccccn3)c2N)cc1 = 4.38
